Sourced from the supplement of paper PMC11061612

# combination Emax per entry
System: MDA-MB-415 (Breast Carcinoma)
experimentSummary: combination Emax (second highest fraction inhibited in the dose matrix, 72 h); higher = more inhibition; extreme values may be limits of the assay
Please give the numeric answer without any surrounding text.

Below: 2 compounds and their reported combination Emax.
Requested read-out: combination Emax. Entry: Cc1c2c(nn1C)CSCc1cc(n(C)n1)CSc1cc(c3ccccc3c1)OCCCc1c(C(=O)O)n(C)c3c-2c(Cl)ccc13 [AZD5991] + Nc1ccn([C@@H]2O[C@H](CO)[C@@H](O)C2(F)F)c(=O)n1 [Gemcitabine] (first compound max 1 µM, 7x7, partner max 0.3 µM)
0.526

Requested read-out: combination Emax. Entry: CN(CCO)CC[C@H](CSc1ccccc1)Nc1ccc(S(=O)(=O)NC(=O)c2ccc(N3CCC([C@@H](O)c4ccccc4-c4ccc(Cl)cc4)CC3)cc2)cc1S(=O)(=O)C(F)(F)F [AZD4320] + C1CN(CCC1(C(=O)N[C@@H](CCO)C2=CC=C(C=C2)Cl)N)C3=NC=NC4=C3C=CN4 [Capivasertib] (first compound max 1 µM, 7x7, partner max 3 µM)
0.968

***
Requested read-out: combination Emax. Entry: COc1cccc(OCCCN)c1-c1cc(Nc2cnc(C#N)cn2)n[nH]1 [Prexasertib] + CCc1c2c(nc3ccc(O)cc13)-c1cc3c(c(=O)n1C2)COC(=O)[C@]3(O)CC [SN-38] (first compound max 1 µM, 7x7, partner max 0.3 µM)
0.538

###

# Bliss excess per entry
Tested on: GAK (Melanoma)
experimentSummary: Bliss excess, mean over the matrix (fraction); higher = more synergy
Please give the numeric answer without any surrounding text.

Below: 3 compounds and their reported Bliss excess.
Requested read-out: Bliss excess. Entry: NC1(C(=O)N[C@@H](CCO)c2ccc(Cl)cc2)CCN(c2ncnc3[nH]ccc23)CC1 [Capivasertib] + C[C@@H]1COCCN1C2=NC(=NC(=C2)C3(CC3)[S@](=N)(=O)C)C4=C5C=CNC5=NC=C4 [AZD6738] (first compound max 10 µM, 7x7, partner max 10 µM)
-0.0552

Requested read-out: Bliss excess. Entry: Cc1cc2ncnn2cc1Nc1ncc2c(n1)n(C1CCOCC1)c(=O)n2C [AZD7648] + COc1cc([C@@H]2c3cc4c(cc3[C@@H](O[C@@H]3O[C@@H]5CO[C@@H](C)O[C@H]5[C@H](O)[C@H]3O)[C@H]3COC(=O)[C@H]23)OCO4)cc(OC)c1O [Etoposide] (first compound max 10 µM, 7x7, partner max 10 µM)
0.0732

Requested read-out: Bliss excess. Entry: Cc1c2c(nn1C)CSCc1cc(n(C)n1)CSc1cc(c3ccccc3c1)OCCCc1c(C(=O)O)n(C)c3c-2c(Cl)ccc13 [AZD5991] + CN(C)CCCOc1ccc(-c2ccc3ncc4c(c3c2)n(C2CCOCC2)c(=O)n4C)cn1 [AZD0156] (first compound max 1 µM, 7x7, partner max 1 µM)
0.0152

***
Requested read-out: Bliss excess. Entry: C=CCn1c(=O)c2cnc(Nc3ccc(N4CCN(C)CC4)cc3)nc2n1-c1cccc(C(C)(C)O)n1 [AZD1775] + CCc1c2c(nc3ccc(O)cc13)-c1cc3c(c(=O)n1C2)COC(=O)[C@]3(O)CC [SN-38] (first compound max 1 µM, partner max 0.3 µM)
-0.0432

Requested read-out: Bliss excess. Entry: CC(=O)c1c(C)c2cnc(Nc3ccc(N4CCNCC4)cn3)nc2n(C2CCCC2)c1=O [Palbociclib] + Cc1c2c(nn1C)CSCc1cc(n(C)n1)CSc1cc(c3ccccc3c1)OCCCc1c(C(=O)O)n(C)c3c-2c(Cl)ccc13 [AZD5991] (first compound max 10 µM, 7x7, partner max 1 µM)
-0.0234

Requested read-out: Bliss excess. Entry: Cc1c2c(nn1C)CSCc1cc(n(C)n1)CSc1cc(c3ccccc3c1)OCCCc1c(C(=O)O)n(C)c3c-2c(Cl)ccc13 [AZD5991] + C=CCn1c(=O)c2cnc(Nc3ccc(N4CCN(C)CC4)cc3)nc2n1-c1cccc(C(C)(C)O)n1 [AZD1775] (first compound max 1 µM, partner max 1 µM)
-0.0077

Requested read-out: Bliss excess. Entry: COc1nnc2ccc(N3CCC(c4ccc(OCCN5CCN(C)C(=O)[C@H]5C)cc4)CC3)nn12 [AZD5153] + C=CCn1c(=O)c2cnc(Nc3ccc(N4CCN(C)CC4)cc3)nc2n1-c1cccc(C(C)(C)O)n1 [AZD1775] (first compound max 1 µM, partner max 1 µM)
-0.158

###

# combination Emax per entry
Test system: NCI-H1341 (Small Cell Lung Carcinoma)
experimentSummary: combination Emax (second highest fraction inhibited in the dose matrix, 72 h); higher = more inhibition; extreme values may be limits of the assay

Below: 3 compounds and their reported combination Emax.
Requested read-out: combination Emax. Entry: CCc1c2c(nc3ccc(O)cc13)-c1cc3c(c(=O)n1C2)COC(=O)[C@]3(O)CC [SN-38] + O=C(c1cc(Cc2n[nH]c(=O)c3ccccc23)ccc1F)N1CCN(C(=O)C2CC2)CC1 [Olaparib] (first compound max 0.3 µM, 7x7, partner max 10 µM)
0.99

Requested read-out: combination Emax. Entry: C[C@@H](c1ccc2nccn2c1)n1nnc2ncc(-c3cnn(C)c3)nc21 [Savolitinib] + Cc1c2c(nn1C)CSCc1cc(n(C)n1)CSc1cc(c3ccccc3c1)OCCCc1c(C(=O)O)n(C)c3c-2c(Cl)ccc13 [AZD5991] (first compound max 1 µM, 7x7, partner max 1 µM)
0.488

Requested read-out: combination Emax. Entry: C[C@@H]1COCCN1c1cc(C2([S@](C)(=N)=O)CC2)nc(-c2ccnc3[nH]ccc23)n1 [AZD6738] + O=C(c1cc(Cc2n[nH]c(=O)c3ccccc23)ccc1F)N1CCN(C(=O)C2CC2)CC1 [Olaparib] (first compound max 10 µM, 7x7, partner max 10 µM)
0.755

***
Requested read-out: combination Emax. Entry: NC1(C(=O)N[C@@H](CCO)c2ccc(Cl)cc2)CCN(c2ncnc3[nH]ccc23)CC1 [Capivasertib] + CC(C)n1c(=O)n(C)c2cnc3cc(F)c(-c4ccc(OCCCN5CCCCC5)nc4)cc3c21 [AZD1390] (first compound max 10 µM, 7x7, partner max 0.3 µM)
0.532

###

System: SUP-M2 (T-Cell Non-Hodgkin's Lymphoma)
experimentSummary: Bliss excess, mean over the matrix (fraction); higher = more synergy
endpointLabel: Bliss excess
Please give the numeric answer without any surrounding text.

Query the reported Bliss excess for SUP-M2 (T-Cell Non-Hodgkin's Lymphoma); item: NC1(C(=O)N[C@@H](CCO)c2ccc(Cl)cc2)CCN(c2ncnc3[nH]ccc23)CC1 [Capivasertib] + COc1nnc2ccc(N3CCC(c4ccc(OCCN5CCN(C)C(=O)[C@H]5C)cc4)CC3)nn12 [AZD5153] (first compound max 10 µM, 7x7, partner max 1 µM)
-0.0322

Let us examine a further case.
Query the reported Bliss excess for SUP-M2 (T-Cell Non-Hodgkin's Lymphoma); item: CC1(C)CCC(CN2CCN(c3ccc(C(=O)NS(=O)(=O)c4ccc(NCC5CCOCC5)c([N+](=O)[O-])c4)c(Oc4cnc5[nH]ccc5c4)c3)CC2)=C(c2ccc(Cl)cc2)C1 [Venetoclax] + C1CN(CCC1(C(=O)N[C@@H](CCO)C2=CC=C(C=C2)Cl)N)C3=NC=NC4=C3C=CN4 [Capivasertib] (first compound max 1 µM, 7x7, partner max 3 µM)
-0.0232

###

Test system: T47D (Breast Carcinoma)
experimentSummary: combination Emax (second highest fraction inhibited in the dose matrix, 72 h); higher = more inhibition; extreme values may be limits of the assay
endpointLabel: combination Emax
Please give the numeric answer without any surrounding text.

Below: 6 compounds and their reported combination Emax.
Query the reported combination Emax for T47D (Breast Carcinoma); item: Cc1c2c(nn1C)CSCc1cc(n(C)n1)CSc1cc(c3ccccc3c1)OCCCc1c(C(=O)O)n(C)c3c-2c(Cl)ccc13 [AZD5991] + C1CN(CCC1(C(=O)N[C@@H](CCO)C2=CC=C(C=C2)Cl)N)C3=NC=NC4=C3C=CN4 [Capivasertib] (first compound max 1 µM, 7x7, partner max 3 µM)
0.579

Query the reported combination Emax for T47D (Breast Carcinoma); item: COc1cccc(OCCCN)c1-c1cc(Nc2cnc(C#N)cn2)n[nH]1 [Prexasertib] + Cc1cc2ncnn2cc1Nc1ncc2c(n1)n(C1CCOCC1)c(=O)n2C [AZD7648] (first compound max 1 µM, 7x7, partner max 10 µM)
0.512

Query the reported combination Emax for T47D (Breast Carcinoma); item: CN(C)CCCOc1ccc(-c2ccc3ncc4c(c3c2)n(C2CCOCC2)c(=O)n4C)cn1 [AZD0156] + O=C(c1cc(Cc2n[nH]c(=O)c3ccccc23)ccc1F)N1CCN(C(=O)C2CC2)CC1 [Olaparib] (first compound max 3 µM, partner max 3 µM)
0.366

Query the reported combination Emax for T47D (Breast Carcinoma); item: NC1(C(=O)N[C@@H](CCO)c2ccc(Cl)cc2)CCN(c2ncnc3[nH]ccc23)CC1 [Capivasertib] + C[C@@H]1COCCN1C2=NC(=NC(=C2)C3(CC3)[S@](=N)(=O)C)C4=C5C=CNC5=NC=C4 [AZD6738] (first compound max 10 µM, 7x7, partner max 10 µM)
0.481

Query the reported combination Emax for T47D (Breast Carcinoma); item: CN(C)CCCOc1ccc(-c2ccc3ncc4c(c3c2)n(C2CCOCC2)c(=O)n4C)cn1 [AZD0156] + C=CCn1c(=O)c2cnc(Nc3ccc(N4CCN(C)CC4)cc3)nc2n1-c1cccc(C(C)(C)O)n1 [AZD1775] (first compound max 1 µM, partner max 1 µM)
0.343

Query the reported combination Emax for T47D (Breast Carcinoma); item: Cn1cnc2c(F)c(Nc3ccc(Br)cc3Cl)c(C(=O)NOCCO)cc21 [Selumetinib] + CC(C)n1c(=O)n(C)c2cnc3cc(F)c(-c4ccc(OCCCN5CCCCC5)nc4)cc3c21 [AZD1390] (first compound max 10 µM, 7x7, partner max 0.3 µM)
0.109

Let us examine a further case.
Query the reported combination Emax for T47D (Breast Carcinoma); item: C[C@@H]1COCCN1c1cc(C2([S@](C)(=N)=O)CC2)nc(-c2ccnc3[nH]ccc23)n1 [AZD6738] + O=C(c1cc(Cc2n[nH]c(=O)c3ccccc23)ccc1F)N1CCN(C(=O)C2CC2)CC1 [Olaparib] (first compound max 10 µM, 7x7, partner max 10 µM)
0.301
